Source of measurements: PubChem BioAssay AID652101

Experiment: potency against LAMP-1 externalization in TALL-104 – TALL-104 cells, flow cytometry, CherryPick01, dose response (AID 652101);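 note: 0% = stimulated DMSO control and 100% = unstimulated control wells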
Conditions: TALL-104 lytic granule exocytosis, LAMP-1 flow cytometry; at 15.1 µM (top of the series); stimulated with 1 µM thapsigargin, 50 nM PMA
Activity calls are given as the source filed them.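 Rule for the calls: active = at least 15% inhibition at the top concentration together with an EC50 under 10 microM; inactive = the rest.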
inhibition overview

[
  {
    "compound": "CN(C)CCCN(C(=O)CCSc1ccccc1)c1nc2cc3c(cc2s1)OCO3",
    "inhibition": "90.1% (inactive)"
  },
  {
    "compound": "CCN(CC)CCOC(=O)c1ccc(N/C=C(/C#N)c2nc(-c3ccc(OC)cc3)cs2)cc1",
    "inhibition": "56.9% (inactive)"
  },
  {
    "compound": "CCc1ccc(CNC(=O)C2CCCN(c3nnc(C)c4c(C)n(-c5ccccc5)nc34)C2)cc1 (stereo not given)",
    "inhibition": "97.2% (inactive)"
  },
  {
    "compound": "COC(=O)[C@]12CCCCC=C1N(Cc1cccc3ccccc13)C(=O)[C@H](CC(=O)NCc1ccc(OC)c(OC)c1)C2",
    "inhibition": "108% (inactive)"
  },
  {
    "compound": "CCN1CCN(Cc2ccc(NC(=O)c3cc(NC(=O)C(=O)c4c[nH]c5ccccc45)cc(OC)c3)cc2C(F)(F)F)CC1",
    "inhibition": "81.8% (inactive)"
  }
]

----------
Assay: potency against LAMP-1 externalization in TALL-104 – TALL-104 cells, flow cytometry, CherryPick01, dose response (AID 652101);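 note: 0% = stimulated DMSO control and 100% = unstimulated control wells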
Details: TALL-104 lytic granule exocytosis, LAMP-1 flow cytometry; at 15.1 µM (top of the series); stimulated with 1 µM thapsigargin, 50 nM PMA
measurement label: inhibition (%)

[
  {
    "compound": "CC(=O)Nc1ccc2sn(-c3ccccc3)c(=O)c2c1",
    "recorded value": 81.8
  },
  {
    "compound": "CN(C)CCCNC(=S)NCC(c1ccc(Cl)cc1Cl)c1c[nH]c2ccccc12 (configuration not stated)",
    "recorded value": 92.7
  },
  {
    "compound": "CCOc1cc(CNCCc2ccc(S(N)(=O)=O)cc2)ccc1OCc1ccc(Cl)cc1",
    "recorded value": 48.5
  },
  {
    "compound": "O=C(Nc1nc2ccccc2n1CCN1CCOCC1)c1ccc(COc2ccccc2Br)o1",
    "recorded value": 102
  },
  {
    "compound": "CCOC(=O)c1c(CSc2ccccc2)n(C)c2cc(Br)c(O)c(CN(C)C)c12",
    "recorded value": 20.5
  },
  {
    "compound": "O=c1c2ccccc2sn1-c1ccc(Cl)cc1",
    "recorded value": 103
  },
  {
    "compound": "O=C(CCN1CCc2ccccc2C(c2ccccc2)C1)c1ccc2c(c1)OCCO2 (configuration not stated)",
    "recorded value": 101
  },
  {
    "compound": "Cc1c(C(=O)OCC(=O)Nc2cccc(S(N)(=O)=O)c2)oc2c1ccc1ccccc12",
    "recorded value": 104
  },
  {
    "compound": "CC(C)c1ccccc1OCC(O)CN(CC(O)COc1cccc2ccccc12)C(C)C (configuration not stated)",
    "recorded value": 101
  },
  {
    "compound": "CCOC(=O)c1c(NC(=O)CSc2nnnn2-c2ccccc2OCC)sc2c1CC(C)(C)NC2(C)C",
    "recorded value": 84.6
  },
  {
    "compound": "CCCNC(=O)Cn1sc2nc(C)cc(C)c2c1=O",
    "recorded value": 97.3
  },
  {
    "compound": "Cc1ccc(-c2nn(-c3ccccc3)cc2CN(Cc2ccccc2)C(=O)c2ccco2)o1",
    "recorded value": 105
  },
  {
    "compound": "c1ccc(COc2ccc(-c3cc4nc(NCCCn5ccnc5)ccn4n3)cc2)cc1",
    "recorded value": 106
  },
  {
    "compound": "O=CNc1cc(-c2ccsc2)cn2c(-c3ccccc3)cnc12",
    "recorded value": 105
  },
  {
    "compound": "COc1ccc(-c2cc(NC=O)c3ncc(-c4ccccc4)n3c2)cc1OC",
    "recorded value": 89.8
  },
  {
    "compound": "COC(=O)c1ccc(CCc2cc(O)c(Br)cc2O)cc1",
    "recorded value": 108
  },
  {
    "compound": "O=c1c(Cl)c2oc3ccccc3nc-2c2ccccc12",
    "recorded value": -0.07
  },
  {
    "compound": "CCOCCCNC(=S)N1CCCN(c2nc3c(C)c(C)ccc3cc2C#N)CC1",
    "recorded value": 83.8
  },
  {
    "compound": "CCOC(=O)c1c(C)oc2c1c(C(c1cccnc1)N1CCOCC1)c(O)c1ccccc12 (configuration not stated)",
    "recorded value": 95
  },
  {
    "compound": "CN1CCN(c2cc(-c3ccccc3)nc3cc(-c4ccc(F)cc4)nn23)CC1",
    "recorded value": 61.3
  },
  {
    "compound": "O=C(Nc1ccc2nc(-c3cccs3)c(-c3cccs3)nc2c1)NC1CC1",
    "recorded value": 68.3
  },
  {
    "compound": "O=[N+]([O-])c1cccc(-c2cc(-c3cc(Br)ccc3O)[nH]n2)c1",
    "recorded value": 67.8
  },
  {
    "compound": "O=c1c2cc(F)ccc2sn1-c1ccccc1Cl",
    "recorded value": 95.2
  },
  {
    "compound": "COC(=O)c1ccc(N2CCN(C)CC2)c(NC(=O)c2sc3ccccc3c2Cl)c1",
    "recorded value": 70.3
  },
  {
    "compound": "CCOC(=O)c1c(NC(C)=O)sc2c(OCC(O)CN(CC)CC)c(Br)ccc12 (configuration not stated)",
    "recorded value": 88.2
  },
  {
    "compound": "COC(=O)c1c(NC(=O)c2ccc(C(=O)c3ccccc3)cc2)sc2c1CC(C)(C)NC2(C)C",
    "recorded value": 90.2
  },
  {
    "compound": "OC1(c2cccc(C(F)(F)F)c2)CCN(c2ncnc3c2[nH]c2ccc(F)cc23)CC1",
    "recorded value": 107
  },
  {
    "compound": "COc1ccc(C2CC(c3cccs3)=NN2c2nc(C)c(C(C)=O)s2)cc1OC (configuration not stated)",
    "recorded value": 2.08
  },
  {
    "compound": "CC(=O)Nc1cc(-c2ccccc2F)cn2c(-c3ccccc3)cnc12",
    "recorded value": 106
  },
  {
    "compound": "CN1CCN(CCCNC(=O)c2ccc(/C=C3\\Sc4ccccc4N(Cc4ccc(F)cc4)C3=O)cc2)CC1",
    "recorded value": 89.7
  },
  {
    "compound": "CCOC(=O)c1nnc(-c2ccccc2)nc1Sc1ccccc1Cl",
    "recorded value": 66.7
  },
  {
    "compound": "CCc1ccc2nc(N(CCCN(C)C)C(=O)c3ccc(S(=O)(=O)N4CCc5ccccc5C4)cc3)sc2c1",
    "recorded value": 81.8
  },
  {
    "compound": "COc1ccc2sc(N(CCCN(C)C)C(=O)c3ccc(S(=O)(=O)N4CCc5ccccc5C4)cc3)nc2c1",
    "recorded value": 50
  },
  {
    "compound": "Cc1ccc(-c2nn(-c3ccccc3)cc2CNCc2ccccc2)cc1",
    "recorded value": 99.5
  },
  {
    "compound": "CCOc1ccccc1CNC(=O)C1CCN(c2nnc(C)c3c(C)n(-c4ccc(C)cc4)nc23)CC1",
    "recorded value": 59.4
  },
  {
    "compound": "N#Cc1ccc(NC(=O)Nc2ccc(Oc3ccc(NC(=O)Nc4ccc(C#N)cc4)cc3)cc2)cc1",
    "recorded value": 33.8
  },
  {
    "compound": "NCCc1c(-c2ccccc2)n(-c2ccccc2)c2ccccc12",
    "recorded value": 68.2
  },
  {
    "compound": "Oc1ccccc1Nc1nc(NCc2ccco2)c2ccccc2n1",
    "recorded value": 107
  },
  {
    "compound": "COc1ccc(Cl)c(-c2cc(C(=O)NCc3ccc(C(F)(F)F)cc3)[nH]n2)c1",
    "recorded value": 103
  },
  {
    "compound": "O=[N+]([O-])c1ccc2nc(/C=C/c3ccc(Cl)cc3)[nH]c2c1",
    "recorded value": 98.6
  },
  {
    "compound": "Cc1cncn1CCc1nc2c3ccccc3nc(SCC(=O)Nc3cccc(Cl)c3)n2n1",
    "recorded value": 104
  },
  {
    "compound": "COc1cc(-c2coc3c(C(=O)NCc4ccc(OC)c(OC)c4)cccc23)ccc1O",
    "recorded value": 104
  }
]
